target-under-test: human GABA A receptor α5β3γ2 (Homo sapiens, UniProt P18507+P31644)
protocol: [3H]flumazenil competition binding assay, human GABA A α5 receptor
test-conditions: human α5β3γ2 receptors transiently transfected in HEK293 cells; displacement of [3H]flumazenil 0.5 nM; 1 hour at 4° C.; means of two determinations; read-out: hKi GABA A α5
Description: Membrane Preparation and Binding Assay The affinity of compounds at GABA A receptor subtypes was measured by competition for [3H]flumazenil (85 Ci/mmol; Roche) binding to HEK293 cells expressing rat (stably transfected) or human (transiently transfected) receptors of composition α1β3γ2, α2β3γ2, α3β3γ2 and α5β3γ2. […]
quantity-name: pKi
Bear in mind: pKi is minus log10 of a mol/L concentration; give just that figure.

>>> readout_number("Cc1onc(-c2ccccn2)c1COc1cc(C(=O)NCCO)on1")
8.52
>>> readout_number("O=C(NCC(F)(F)F)c1cc(OCc2c(-c3ccc(F)cc3)noc2CO)no1")
8.00
>>> readout_number("Cc1onc(-c2ccccn2)c1COc1cc(C(=O)NN(C)C)on1")
8.05
>>> readout_number("Cc1onc(-c2ccccc2)c1COc1cc(C(=O)NCCO)on1")
8.10
>>> readout_number("Cc1onc(-c2ccccc2)c1COc1cc(C(=O)NC2CCOC2)on1 (stereo not shown)")
8.36
>>> readout_number("CCCCc1noc(C)c1COc1cc(C(=O)NCCO)on1")
7.65
>>> readout_number("Cc1onc(-c2ccccc2)c1COc1cc(C(=O)NCCO)sn1")
7.46
>>> readout_number("CCCCc1noc(C)c1COc1cc(C(=O)NN(C)C)on1")
7.25

Query: Dear colleague, please send me the reported pKi for "Cc1onc(-c2ccccc2)c1COc1cc(C(=O)NN(C)C)on1" when you can.
Result: 7.65

Query: Dear colleague, please send me the reported pKi for CCCCc1noc(C)c1COc1cc(C(=O)NC2CCOC2)sn1 (stereo not shown) when you can.
Result: 7.54

Query: Dear colleague, please send me the reported pKi for "Cc1onc(-c2ccccn2)c1COc1cc(C(=O)NN2CCCCC2)on1" when you can.
Result: 8.22

Query: Dear colleague, please send me the reported pKi for "Cc1onc(-c2ccccc2)c1COc1cc(C(=O)NN2CCOCC2)on1" when you can.
Result: 8.55

Query: Dear colleague, please send me the reported pKi for "Cc1onc(-c2ccccn2)c1COc1cc(C(=O)NN2CCCC2)on1" when you can.
Result: 8.11

Query: Dear colleague, please send me the reported pKi for Cc1onc(-c2ccccn2)c1COc1cc(C(=O)NC2CCOC2)on1 (stereo not shown) when you can.
Result: 8.85

Query: Dear colleague, please send me the reported pKi for "Cc1onc(-c2ccccc2)c1COc1cc(C(=O)NN2CCCCC2)on1" when you can.
Result: 7.86

Query: Dear colleague, please send me the reported pKi for CCCCc1noc(C)c1COc1cc(C(=O)NC2CCOC2)on1 (single isomer, unassigned) [Example 30] when you can.
Result: 8.19

----------
As shown below, each of these compounds has a reported pKi value.
target-under-test: human GABA A receptor α5β3γ2 (Homo sapiens, UniProt P18507+P31644)
protocol: [3H]flumazenil competition binding assay, human GABA A α5 receptor
test-conditions: human α5β3γ2 receptors transiently transfected in HEK293 cells; displacement of [3H]flumazenil 0.5 nM; 1 hour at 4° C.; means of two determinations; read-out: hKi GABA A α5
Description: Membrane Preparation and Binding Assay The affinity of compounds at GABA A receptor subtypes was measured by competition for [3H]flumazenil (85 Ci/mmol; Roche) binding to HEK293 cells expressing rat (stably transfected) or human (transiently transfected) receptors of composition α1β3γ2, α2β3γ2, α3β3γ2 and α5β3γ2. […]
Bear in mind: pKi is minus log10 of a mol/L concentration; give just that figure.

Solved cases (4 shown):
>>> readout_number("CCCCc1noc(C)c1COc1cc(C(=O)NC2CCOC2)on1 (stereo not shown) [Example 29]")
8.07
>>> readout_number("Cc1onc(-c2ccccc2)c1COc1cc(C(=O)NC(C)CO)on1 (single isomer, unassigned) [Example 8]")
7.87
>>> readout_number("Cc1onc(-c2ccc(F)cn2)c1COc1cc(C(=O)NCCO)on1")
8.66
>>> readout_number("Cc1onc(-c2ccccc2)c1COc1cc(C(=O)NN2CCCC2)on1")
7.73

Query: Dear colleague, please send me the reported pKi for Cc1onc(-c2ccccc2)c1COc1cc(C(=O)NC(C)CO)on1 (single isomer, unassigned) [Example 9] when you can.
Result: 7.64

Query: Dear colleague, please send me the reported pKi for CCCCc1noc(C)c1COc1cc(C(=O)NC(C)CO)on1 (stereo not shown) when you can.
Result: 7.56

Query: Dear colleague, please send me the reported pKi for "Cc1onc(-c2ccccc2)c1COc1cc(C(=O)NC(C)C)on1" when you can.
Result: 8.12

Query: Dear colleague, please send me the reported pKi for "Cc1onc(-c2ccc(F)cc2)c1COc1cc(C(=O)N2CC3(COC3)C2)on1" when you can.
Result: 8.01

Query: Dear colleague, please send me the reported pKi for Cc1onc(-c2ccc(F)cn2)c1COc1cc(C(=O)NC2CCOC2)sn1 (stereo not shown) when you can.
Result: 8.42

Query: Dear colleague, please send me the reported pKi for "CCCCc1noc(C)c1COc1cc(C(=O)N[C@@H](C)CO)on1" when you can.
Result: 7.64
